Structures can show the parent of a compound that is named as a salt.
A short record of pKi observed with human SERT (HEK293 membranes) (Homo sapiens, UniProt P31645) follows.
Sequence (P31645 whole entry): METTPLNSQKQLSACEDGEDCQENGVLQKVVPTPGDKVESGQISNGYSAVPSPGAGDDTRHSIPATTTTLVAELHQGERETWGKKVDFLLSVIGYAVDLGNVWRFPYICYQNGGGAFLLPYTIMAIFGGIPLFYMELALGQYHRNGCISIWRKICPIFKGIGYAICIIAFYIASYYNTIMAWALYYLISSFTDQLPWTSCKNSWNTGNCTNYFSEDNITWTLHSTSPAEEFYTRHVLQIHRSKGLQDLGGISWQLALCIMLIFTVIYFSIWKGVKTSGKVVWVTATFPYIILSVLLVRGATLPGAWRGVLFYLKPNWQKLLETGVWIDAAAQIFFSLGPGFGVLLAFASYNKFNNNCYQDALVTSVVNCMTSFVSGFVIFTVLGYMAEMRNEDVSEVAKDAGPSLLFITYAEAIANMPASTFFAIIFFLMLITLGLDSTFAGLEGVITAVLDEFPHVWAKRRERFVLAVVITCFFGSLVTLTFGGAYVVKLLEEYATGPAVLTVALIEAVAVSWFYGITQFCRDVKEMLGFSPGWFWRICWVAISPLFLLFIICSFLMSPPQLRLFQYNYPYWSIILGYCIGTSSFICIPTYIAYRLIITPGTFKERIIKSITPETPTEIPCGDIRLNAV
Give bare numbers, as −log10 of the molar value.

Some entries whose results are on file:
{"molecule": "CSc1ccc(C2CN(C)Cc3cc(Oc4ccc(CN5CCOCC5)cn4)ccc32)cc1 (stereo not shown)", "pKi": 8.10}
{"molecule": "CSc1ccc(C2CN(C)Cc3cccc(Oc4cccc(CN5CCCCC5)c4)c32)cc1 (stereo not shown) [Example 1B, Trifluoroacetic Acid Salt]", "pKi": 6.21}
{"molecule": "CSc1ccc(C2CN(C)Cc3cc(Oc4ccc(CN5CCCCC5)cn4)ccc32)cc1 (stereo not shown)", "pKi": 8.64}

Please turn your attention to the following entry.
Specify measured pKi for CSc1ccc(C2CN(C)Cc3cc(Oc4ccc(CN5CCC(F)CC5)cn4)ccc32)cc1 (stereo not shown) . 8.19
